This collection of values is drawn from patent US20160185837A1.

Assay Target: human glucagon receptor (human, UniProt P47871 26-477)
Measurement Notes: cell-based or functional assay
Measured Property: cAMP EC50, Batch 2 (nM)
Answer with a number only, understood to be in nM.

Binder	cAMP EC50, Batch 2 / nM
IP274 (Fc fusion) YSEGTFTSDYSKLLEKEAVRLFIEWLLKGPGGGGGSGGGGSGGGGSGGGGSATHTCPPC	30

What measured cAMP EC50, Batch 2 goes with IP149 (Fc fusion) YSQGTFTSDYSKLLEEEAVRLFIEWLVKGPAPPGGSGSTASSGSGSATGGGGAATHTCPPCPAPEF ?
0.23

Which measured cAMP EC50, Batch 2 value corresponds to IP324 (Fc fusion) YSEGTFTSDYSKLLEEEAVRLFIEWLVKGPGGGGGSGGGGSGGGGSGGGGSGGGGSGGGGSGGGGSA ?
120

Suppose we examine the binder IP295 (Fc fusion) YSEGTFTSDYSKLLEEEAVRLFIEWLLAGGPSSGAPPPSGGGGGSGGGGSGGGGSGGGGSATHTCPPC ; what cAMP EC50, Batch 2 value has been reported?
32
